compound: COc1ccc(C(=O)c2nc3ccccc3nc2-c2ccc(F)cc2)cc1 [Compound 23b]
melting point: 147.6 to 147.9 °C

compound: COc1ccc(C(=O)c2nc3cc(Cl)c(Cl)cc3nc2-c2ccc(OC)cc2)cc1 [Compound 26b]
melting point: 178.8 to 179 °C

compound: COc1ccc(-c2nc3cc(Cl)c(Cl)cc3nc2C(O)c2ccc(OC)cc2)cc1 (centres unmarked) [Compound 20b]
melting point: 144.1 to 144.5 °C

compound: COc1ccc(-c2nc3ccccc3nc2C(=O)c2ccccc2)cc1 [Compound 25a]
melting point: 93.9 to 98.2 °C

compound: COc1ccc(C(=O)c2nc3cc(Cl)c(Cl)cc3nc2-c2ccccc2)cc1 [Compound 22b]
melting point: 171.9 to 172.3 °C

----------
Tested on: DENV2
Assay: microbe, parasite or virus in culture
Type: cell-based, dengue virus
Conditions: 10 μM; Huh-7-DV-Fluc cells; three days; mean ± SD
Quick rule for you: DENV2 % Inhibition at 10 μM at 50% or higher means rule met, lower means rule not met.

compound: COc1ccc(C(O)c2nc3ccccc3nc2-c2ccc(F)cc2)cc1 (stereo not drawn) [Compound 17b]
answer_label: rule not met
//
compound: COc1ccc(-c2nc3ccccc3nc2C(O)c2ccccc2)cc1 (stereo not drawn) [Compound 19a]
answer_label: rule met
//
compound: COc1ccc(C(=O)c2nc3ccccc3nc2-c2ccccc2)cc1 [Compound 21b]
answer_label: rule met
//
compound: COc1ccc(C(O)c2nc3cc(Cl)c(Cl)cc3nc2-c2ccccc2)cc1 (stereo not drawn) [Compound 16b]
answer_label: rule not met
//
compound: COc1ccc(-c2nc3cc(Cl)c(Cl)cc3nc2C(O)c2ccccc2)cc1 (stereo not drawn) [Compound 20a]
answer_label: rule met

----------
Entries and their CC50 at 72 h
Assay: Cytotoxicity assay (XTT method)
Assay type: cell-based, Human
Settings: human; uninfected Huh-7 cells; mean ± SD; read-out: CC50 (concentration causing a 50% growth inhibition of uninfected Huh-7 cells)

molecule: COc1ccc(-c2nc3cc(Cl)c(Cl)cc3nc2C(O)c2ccccc2)cc1 (stereo not drawn) [Compound 20a]
CC50 at 72 h: > 200 µM
--
molecule: COc1ccc(-c2nc3ccccc3nc2C(O)c2ccccc2)cc1 (stereo not drawn) [Compound 19a]
CC50 at 72 h: > 200 µM
--
molecule: COc1ccc(C(=O)c2nc3ccccc3nc2-c2ccccc2)cc1 [Compound 21b]
CC50 at 72 h: > 200 µM
